System: Setaria faberi (SETFA)
measurement protocol: Pre-emergence herbicidal glasshouse test (Table B1)
Type: in vivo
test conditions: applied at 500 g/h, evaluated after 13 days
observation type: PRE Application SETFA, percentage damage on five-point scale

Example cases with answers are listed next.
>>> value_reported("Cn1nnnc1NC(=O)c1ccc(OC(F)(F)C(F)F)c(NC(=O)C2CC2)c1Cl [Compound 1.110]")
"5 (5=80-100%)"
>>> value_reported("CCn1nnnc1NC(=O)c1ccc(OC(F)(F)F)c(NC(=O)C2CC2)c1Cl [Compound 1.117]")
"4 (4=60-79%)"
>>> value_reported("Cc1nnc(NC(=O)c2ccc(OC(F)(F)F)c(N(C)C)c2Cl)o1 [Compound 2.001]")
"5 (5=80-100%)"
>>> value_reported("Cn1nnnc1NC(=O)c1ccc(OC(F)(F)F)c(NC(=O)C2(C)CC2)c1Cl [Compound 1.033]")
"5 (5=80-100%)"
>>> value_reported("CC(F)C(=O)Nc1c(OC(F)(F)F)ccc(C(=O)Nc2nnnn2C)c1Cl (centres unmarked) [Compound 1.009]")
"5 (5=80-100%)"

(Q) For the molecule Cn1nnnc1NC(=O)c1ccc(OCC(F)(F)F)c(NC(=O)C2CC2)c1Cl [Compound 1.017] , what PRE Application SETFA, percentage damage on five-point scale is on record?
(A) 5 (5=80-100%)

(Q) Item under review: COCCC(=O)Nc1c(OC(F)(F)F)ccc(C(=O)Nc2nnnn2C)c1Cl [Compound 1.120] . Reported PRE Application SETFA, percentage damage on five-point scale?
(A) 1 (1=0-19%)

(Q) Would you mind telling me what PRE Application SETFA, percentage damage on five-point scale value was observed for Cn1nnnc1NC(=O)c1ccc(OC(F)(F)F)c(NC(=O)C2CC2)c1Cl [Compound 1.006] ?
(A) 5 (5=80-100%)

====

Test system: Ipomoea hederacea (IPOHE)
measurement protocol: Pre-emergence herbicidal glasshouse test (Table B1)
Type: in vivo
test conditions: applied at 125 g/ha, evaluated after 13 days
Listed molecules paired with reported PRE Application IPOHE, percentage damage on five-point scale

>>> value_reported("CCn1nnnc1NC(=O)c1ccc(OC(F)(F)F)c(NC(=O)COC(C)C)c1Cl")
"5 (5=80-100%)"
>>> value_reported("Cn1nnnc1NC(=O)c1ccc(OC(F)F)c(NC(=O)c2cc(Cl)ccn2)c1Cl")
"4 (4=60-79%)"
>>> value_reported("CCOCC(=O)Nc1c(OC(F)(F)F)ccc(C(=O)Nc2nnnn2CC)c1Cl")
"5 (5=80-100%)"

(Q) Given the molecule CCC(=O)N(C)c1c(OC(F)F)ccc(C(=O)Nc2nnnn2C)c1Cl , what is its reported PRE Application IPOHE, percentage damage on five-point scale?
(A) 4 (4=60-79%)

(Q) Given the molecule Cn1nnnc1NC(=O)c1ccc(OC(F)(F)F)c(NC(=O)C2(F)CC2)c1Cl , what is its reported PRE Application IPOHE, percentage damage on five-point scale?
(A) 4 (4=60-79%)

====

Test system: Ipomoea hederacea (IPOHE)
measurement protocol: Pre-emergence herbicidal glasshouse test (Table B1)
Format: in vivo
test conditions: applied at 125 g/ha, evaluated after 13 days
Recorded PRE Application IPOHE, percentage damage on five-point scale values for a group of molecules are listed next.

>>> value_reported("CCC(=O)N(CC)c1c(OC(F)F)ccc(C(=O)Nc2nnnn2C)c1C(F)(F)F")
"3 (3=40-59%)"
>>> value_reported("CCC(C)C(=O)Nc1c(OC(F)(F)F)ccc(C(=O)Nc2nnnn2C)c1Cl (centres unmarked)")
"4 (4=60-79%)"
>>> value_reported("Cn1nnnc1NC(=O)c1ccc(OC(F)F)c(NC(=O)C2CC2(F)F)c1Cl (centres unmarked)")
"3 (3=40-59%)"

(Q) Any idea what its PRE Application IPOHE, percentage damage on five-point scale is? The molecule is CCn1nnnc1NC(=O)c1ccc(OC(F)(F)F)c(NC(=O)c2ccccc2OC)c1Cl
(A) 2 (2=20-39%)

(Q) Please report the recorded PRE Application IPOHE, percentage damage on five-point scale for CCn1nnnc1NC(=O)c1ccc(OC(F)F)c(NC(=O)c2cc(OC)ccn2)c1Cl .
(A) 2 (2=20-39%)

(Q) For the molecule CCCOCC(=O)Nc1c(OC(F)(F)F)ccc(C(=O)Nc2nnnn2CC)c1Cl , what PRE Application IPOHE, percentage damage on five-point scale is on record?
(A) 4 (4=60-79%)

(Q) What does the record list as PRE Application IPOHE, percentage damage on five-point scale for Cc1c(C(=O)Nc2c(OC(F)F)ccc(C(=O)Nc3nnnn3C)c2Cl)nn(C)c1C ?
(A) 4 (4=60-79%)
